# System: biotinyl-Ile-oxazolone
# Assay Summary: self-aminoacylation, catalytic enhancement (BIO) (fold over background); higher = more active; k-Seq, kA / k0A0; sequences stand for … in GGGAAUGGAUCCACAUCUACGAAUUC…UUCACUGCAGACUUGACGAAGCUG
Fewer inactive variants are shown than the library holds.
Property Measured: self-aminoacylation
Simply state the number, no unit and no words.

Below, each entry is followed by its recorded self-aminoacylation result.
CAACUUCAAACAGUCGGUCUG [Fam1A.1 aminoacylation ribozyme variant] | 1.21
AUUCAUCUAGGUCAUCGGGAG [Fam2.2 aminoacylation ribozyme variant] | 1.11

Asked: Supply measured self-aminoacylation of UUUCACCUAGAUCAUCGGGUG [Fam2.2 aminoacylation ribozyme variant] in your reply.
Given back: 2.35

Asked: Supply reported self-aminoacylation belonging to this sequence: AUUCACCUAGGUCAUCGGGCA [Fam2.2 aminoacylation ribozyme variant]
Given back: 3.5

Asked: Indicate the recorded self-aminoacylation value for this sequence: AUUCACCUAUGUCUUCGGGUG [Fam2.2 aminoacylation ribozyme variant]
Given back: 2.11

Asked: Name the recorded self-aminoacylation of the sequence listed here: CUACGUAAAACAAUCGGUCUG [Fam1A.1 aminoacylation ribozyme variant]
Given back: 1.18

Asked: Give self-aminoacylation for the following sequence: AAGUUUGCUAAUAGUCCGAAG [Fam3.1 aminoacylation ribozyme variant]
Given back: 1.1

Asked: Give self-aminoacylation for the following sequence: AAGUUUGCUAGCAGUCGCAAG [Fam3.1 aminoacylation ribozyme variant]
Given back: 1.19

Asked: Provide self-aminoacylation value for the following sequence: AUUACCGUCGUCAUCGAGUGA [Fam2.1 aminoacylation ribozyme variant]
Given back: 2.36
